# assay.system: Upc2 (Saccharomyces cerevisiae) (UniProt Q12151)
# Sequence: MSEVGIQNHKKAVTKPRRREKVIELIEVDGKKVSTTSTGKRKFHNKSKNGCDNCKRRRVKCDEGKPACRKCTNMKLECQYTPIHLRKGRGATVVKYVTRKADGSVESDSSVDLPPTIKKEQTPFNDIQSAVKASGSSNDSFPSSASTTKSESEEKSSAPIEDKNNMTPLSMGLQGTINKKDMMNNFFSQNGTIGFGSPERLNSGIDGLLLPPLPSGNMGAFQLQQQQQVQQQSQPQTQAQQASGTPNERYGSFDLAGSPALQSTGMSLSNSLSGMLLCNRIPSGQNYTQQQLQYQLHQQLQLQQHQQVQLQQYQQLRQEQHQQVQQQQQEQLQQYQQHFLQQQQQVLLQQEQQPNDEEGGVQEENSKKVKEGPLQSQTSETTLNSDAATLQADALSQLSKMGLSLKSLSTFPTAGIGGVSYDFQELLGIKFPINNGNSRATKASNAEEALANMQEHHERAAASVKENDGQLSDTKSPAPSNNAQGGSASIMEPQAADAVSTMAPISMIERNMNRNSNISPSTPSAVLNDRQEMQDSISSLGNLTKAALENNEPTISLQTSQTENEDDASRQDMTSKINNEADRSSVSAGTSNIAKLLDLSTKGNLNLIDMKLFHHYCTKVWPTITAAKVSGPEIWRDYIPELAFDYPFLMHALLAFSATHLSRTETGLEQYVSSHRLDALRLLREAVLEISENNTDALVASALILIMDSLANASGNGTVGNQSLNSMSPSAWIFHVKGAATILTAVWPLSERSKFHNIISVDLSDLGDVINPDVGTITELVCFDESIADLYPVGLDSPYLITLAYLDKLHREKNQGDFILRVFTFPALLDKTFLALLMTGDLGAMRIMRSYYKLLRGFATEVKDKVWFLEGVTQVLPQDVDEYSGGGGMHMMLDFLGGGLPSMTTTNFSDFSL
# condition.info: 200 nM
Parameter binding signal (PBM E-score (-0.5 to 0.5)): see the listing below.
Simply state the number, no unit and no words.

{"macromolecule.sequence": "CTCGTATA (double strand) [8-mer CTCGTATA]", "result.value": 0.499}

Next sequence, binding signal (PBM E-score (-0.5 to 0.5)) to be filled in.
Ask: # get_value(readout='binding signal (PBM E-score (-0.5 to 0.5))', item= CGTATACG (double strand) [8-mer CGTATACG] )
Reply: 0.494

###

# assay.system: Stp1 (Saccharomyces cerevisiae) (UniProt Q00947)
# Sequence: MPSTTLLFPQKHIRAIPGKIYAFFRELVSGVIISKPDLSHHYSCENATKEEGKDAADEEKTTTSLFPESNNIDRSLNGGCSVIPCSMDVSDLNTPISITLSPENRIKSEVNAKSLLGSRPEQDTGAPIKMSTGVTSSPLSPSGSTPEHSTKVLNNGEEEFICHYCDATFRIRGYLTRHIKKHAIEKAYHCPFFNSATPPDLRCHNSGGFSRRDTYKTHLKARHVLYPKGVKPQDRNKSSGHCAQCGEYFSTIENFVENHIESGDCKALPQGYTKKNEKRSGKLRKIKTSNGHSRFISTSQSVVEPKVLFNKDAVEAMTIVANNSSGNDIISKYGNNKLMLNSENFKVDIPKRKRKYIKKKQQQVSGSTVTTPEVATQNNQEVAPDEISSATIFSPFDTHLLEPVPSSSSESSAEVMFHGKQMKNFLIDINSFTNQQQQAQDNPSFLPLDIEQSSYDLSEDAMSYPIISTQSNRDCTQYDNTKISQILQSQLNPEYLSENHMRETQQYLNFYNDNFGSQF
# condition.info: 200 nM
readout.type: binding signal (PBM E-score (-0.5 to 0.5))
Just the number, please, no unit after it.

{"macromolecule.sequence": "CGCCGTGC (double strand) [8-mer CGCCGTGC]", "result.value": 0.493}
{"macromolecule.sequence": "ACACGGCA (double strand) [8-mer ACACGGCA]", "result.value": 0.49}
{"macromolecule.sequence": "GCACGGCA (double strand) [8-mer GCACGGCA]", "result.value": 0.49}
{"macromolecule.sequence": "GCGCCGCA (double strand) [8-mer GCGCCGCA]", "result.value": 0.491}
{"macromolecule.sequence": "CACGGCGC (double strand) [8-mer CACGGCGC]", "result.value": 0.493}
{"macromolecule.sequence": "CGCACGGC (double strand) [8-mer CGCACGGC]", "result.value": 0.488}
{"macromolecule.sequence": "CGCGGCGC (double strand) [8-mer CGCGGCGC]", "result.value": 0.492}
{"macromolecule.sequence": "GTGCCGTA (double strand) [8-mer GTGCCGTA]", "result.value": 0.493}

Ask: Would you mind telling me what binding signal (PBM E-score (-0.5 to 0.5)) value was observed for ACGGCGCC (double strand) [8-mer ACGGCGCC] ?
Reply: 0.49

Ask: Fill in the blank: the reported binding signal (PBM E-score (-0.5 to 0.5)) of ACGGCACT (double strand) [8-mer ACGGCACT] is ____.
Reply: 0.489

Ask: Which binding signal (PBM E-score (-0.5 to 0.5)) is listed for GCGCCGTA (double strand) [8-mer GCGCCGTA] ?
Reply: 0.495

Ask: binding signal (PBM E-score (-0.5 to 0.5)) lookup needed for CGCGGCAC (double strand) [8-mer CGCGGCAC] , thanks.
Reply: 0.49

Ask: Could you tell me which binding signal (PBM E-score (-0.5 to 0.5)) is on file for CACGGCAC (double strand) [8-mer CACGGCAC] ?
Reply: 0.491

Ask: binding signal (PBM E-score (-0.5 to 0.5)) for ATACGGCG (double strand) [8-mer ATACGGCG] ?
Reply: 0.49

Ask: Reported binding signal (PBM E-score (-0.5 to 0.5)), sequence ACGGCGCG (double strand) [8-mer ACGGCGCG] : ____
Reply: 0.492

###

Each entry below lists one item and its recorded binding signal (PBM E-score (-0.5 to 0.5)) value.
# assay.system: Vhr1 (Saccharomyces cerevisiae)
# Sequence: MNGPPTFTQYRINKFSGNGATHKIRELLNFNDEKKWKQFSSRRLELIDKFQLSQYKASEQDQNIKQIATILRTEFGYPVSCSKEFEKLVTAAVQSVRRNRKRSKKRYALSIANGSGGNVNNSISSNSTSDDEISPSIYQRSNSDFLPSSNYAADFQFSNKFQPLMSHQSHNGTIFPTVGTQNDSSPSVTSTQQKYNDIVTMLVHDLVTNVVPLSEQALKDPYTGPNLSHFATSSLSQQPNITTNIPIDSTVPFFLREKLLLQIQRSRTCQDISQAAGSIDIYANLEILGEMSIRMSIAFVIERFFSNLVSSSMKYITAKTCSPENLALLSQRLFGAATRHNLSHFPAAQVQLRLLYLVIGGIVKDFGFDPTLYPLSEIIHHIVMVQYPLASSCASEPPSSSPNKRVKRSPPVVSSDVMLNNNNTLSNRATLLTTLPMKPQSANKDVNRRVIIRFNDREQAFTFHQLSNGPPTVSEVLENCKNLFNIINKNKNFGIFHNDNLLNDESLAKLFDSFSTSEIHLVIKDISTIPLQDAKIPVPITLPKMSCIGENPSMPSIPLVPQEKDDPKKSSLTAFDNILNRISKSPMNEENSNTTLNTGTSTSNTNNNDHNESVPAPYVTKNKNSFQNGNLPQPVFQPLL
# condition.info: 200 nM
# output: bare number, no unit

Illustrative cases are given below, each with its answer.
{"macromolecule.sequence": "GTGAGTCA (double strand) [8-mer GTGAGTCA]", "result.value": 0.494}
{"macromolecule.sequence": "AGTGACTC (double strand) [8-mer AGTGACTC]", "result.value": 0.481}
{"macromolecule.sequence": "CTGACTCA (double strand) [8-mer CTGACTCA]", "result.value": 0.49}

Read the next record carefully.
Ask: Query the reported binding signal (PBM E-score (-0.5 to 0.5)) for Vhr1 (Saccharomyces cerevisiae); item: ATGACTCC (double strand) [8-mer ATGACTCC]
Reply: 0.494

###

# assay.system: Pdr3 (Saccharomyces cerevisiae)
# Sequence: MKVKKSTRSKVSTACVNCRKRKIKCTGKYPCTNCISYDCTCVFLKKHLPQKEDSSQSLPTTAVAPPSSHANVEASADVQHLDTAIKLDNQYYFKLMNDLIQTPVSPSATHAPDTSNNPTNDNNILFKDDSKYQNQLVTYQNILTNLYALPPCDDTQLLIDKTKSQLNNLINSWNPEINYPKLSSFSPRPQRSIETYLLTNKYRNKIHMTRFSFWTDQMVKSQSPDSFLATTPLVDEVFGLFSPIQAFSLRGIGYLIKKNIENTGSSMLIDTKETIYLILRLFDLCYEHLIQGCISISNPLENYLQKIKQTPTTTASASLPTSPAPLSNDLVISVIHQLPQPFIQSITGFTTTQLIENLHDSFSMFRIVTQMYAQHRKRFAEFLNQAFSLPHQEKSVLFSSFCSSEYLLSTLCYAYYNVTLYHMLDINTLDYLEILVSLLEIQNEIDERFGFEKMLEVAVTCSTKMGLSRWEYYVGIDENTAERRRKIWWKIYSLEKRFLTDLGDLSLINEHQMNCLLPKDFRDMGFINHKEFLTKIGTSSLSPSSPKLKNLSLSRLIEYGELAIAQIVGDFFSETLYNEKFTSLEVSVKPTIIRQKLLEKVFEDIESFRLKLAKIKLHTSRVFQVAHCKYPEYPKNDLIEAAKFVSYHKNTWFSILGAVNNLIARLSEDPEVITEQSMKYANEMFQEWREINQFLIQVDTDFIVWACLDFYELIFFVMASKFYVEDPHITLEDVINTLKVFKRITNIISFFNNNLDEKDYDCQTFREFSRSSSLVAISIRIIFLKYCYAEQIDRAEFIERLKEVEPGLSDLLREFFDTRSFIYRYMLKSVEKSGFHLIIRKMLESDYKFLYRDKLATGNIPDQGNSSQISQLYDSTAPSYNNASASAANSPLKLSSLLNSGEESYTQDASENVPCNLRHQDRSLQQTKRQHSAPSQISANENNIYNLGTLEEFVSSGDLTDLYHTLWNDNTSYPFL
# condition.info: 200 nM
Item-by-item account of binding signal (PBM E-score (-0.5 to 0.5))
Please reply with the number alone, leaving off any unit.

Worked cases, answers included:
{"macromolecule.sequence": "CCGCGGAA (double strand) [8-mer CCGCGGAA]", "result.value": 0.499}
{"macromolecule.sequence": "TTCCGGAA (double strand) [8-mer TTCCGGAA]", "result.value": 0.492}
{"macromolecule.sequence": "GCCGCGGA (double strand) [8-mer GCCGCGGA]", "result.value": 0.495}
{"macromolecule.sequence": "CCCGCGGA (double strand) [8-mer CCCGCGGA]", "result.value": 0.498}
{"macromolecule.sequence": "CCGCGGGA (double strand) [8-mer CCGCGGGA]", "result.value": 0.499}

Ask: Which binding signal (PBM E-score (-0.5 to 0.5)) is reported with Pdr3 (Saccharomyces cerevisiae) for this entry: CGCGGAAC (double strand) [8-mer CGCGGAAC] ?
Reply: 0.491

Ask: // lookup binding signal (PBM E-score (-0.5 to 0.5)) | system=Pdr3 (Saccharomyces cerevisiae) | key= TCCGCGGA (double strand) [8-mer TCCGCGGA]
Reply: 0.5

This collection of values is drawn from paper PMC3334620.
